Reference for the values: patent US20230265116A1

# target-or-test-system: EGFR L858R/T790M/C797S (BaF3-LTC cells) (Homo sapiens, UniProt P00533, C797S/L858R/T790M)
# Construct: expressed in transfected cells; host or cells: BaF3
# Sequence (P00533 25-1210 T790M/C797S/L858R): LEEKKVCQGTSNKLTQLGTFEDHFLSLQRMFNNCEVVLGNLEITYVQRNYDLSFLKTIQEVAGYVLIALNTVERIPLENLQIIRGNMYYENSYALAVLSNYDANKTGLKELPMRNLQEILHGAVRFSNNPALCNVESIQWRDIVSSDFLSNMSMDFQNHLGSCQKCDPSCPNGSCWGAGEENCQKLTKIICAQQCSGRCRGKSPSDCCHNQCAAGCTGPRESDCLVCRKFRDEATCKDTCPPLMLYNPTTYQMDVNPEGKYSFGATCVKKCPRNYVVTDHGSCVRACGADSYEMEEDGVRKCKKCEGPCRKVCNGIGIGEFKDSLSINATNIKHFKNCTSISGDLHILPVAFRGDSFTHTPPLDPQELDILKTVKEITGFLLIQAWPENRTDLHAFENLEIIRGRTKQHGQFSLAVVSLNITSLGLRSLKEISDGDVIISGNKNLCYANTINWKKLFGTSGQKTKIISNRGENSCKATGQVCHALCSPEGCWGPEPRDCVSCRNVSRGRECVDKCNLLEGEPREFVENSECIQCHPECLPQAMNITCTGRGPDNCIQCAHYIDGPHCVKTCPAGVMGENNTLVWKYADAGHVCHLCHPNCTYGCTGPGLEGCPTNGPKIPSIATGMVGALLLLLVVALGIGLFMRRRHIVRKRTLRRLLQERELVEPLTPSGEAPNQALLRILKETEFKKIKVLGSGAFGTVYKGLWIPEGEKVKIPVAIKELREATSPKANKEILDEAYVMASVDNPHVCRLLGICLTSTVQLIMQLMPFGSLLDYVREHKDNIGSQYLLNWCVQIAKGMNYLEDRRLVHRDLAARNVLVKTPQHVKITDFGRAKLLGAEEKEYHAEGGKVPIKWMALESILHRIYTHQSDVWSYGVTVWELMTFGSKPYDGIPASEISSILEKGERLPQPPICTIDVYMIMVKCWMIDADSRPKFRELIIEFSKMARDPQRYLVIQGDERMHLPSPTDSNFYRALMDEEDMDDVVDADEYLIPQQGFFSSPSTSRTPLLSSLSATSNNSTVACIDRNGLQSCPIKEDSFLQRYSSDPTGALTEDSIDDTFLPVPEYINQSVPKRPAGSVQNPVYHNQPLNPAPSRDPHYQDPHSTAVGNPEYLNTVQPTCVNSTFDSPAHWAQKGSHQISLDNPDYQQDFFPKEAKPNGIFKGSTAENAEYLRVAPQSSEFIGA
# test-details: EGFR degradation HTRF assay, BaF3-LTC cells
# Type: cell-based
# condition-summary: BaF3-LTC cells; EGFR degradation, IC50 (DC50) from curve fit; read-out: DC50(nM) BaF3-LTC
# Description: BaF3 WT(wild type), BaF3-LTC(L858R/T790M/C797S) and BaF3-DTC(Del19/T790M/C797S) cells are treated with compounds diluted in 0.2% DMSO cell culture medium and incubate for 16h, 37° C., 5% CO2, H1975-#36, H1975-#28, H1975-#23 and HCC827 cells are treated with compounds diluted in 0.2% DMSO cell culture medium on day 2, incubate for 16h, 37° C., 5% CO2.the final concentriation of compounds in all assay is start with 10 uM, 5-fold dilution, total 8 doses were included. […]
readout-label: DC50 (nM)

Worked set:
Which measured DC50 value corresponds to CCOc1cc(N2CCC(N3CCN(C(=O)[C@@H]4CCN(c5cc(F)c([C@H]6CCC(=O)NC6=O)c(F)c5)C4)CC3)CC2)c(CC)cc1Nc1ncc(Br)c(Nc2ccc3nc(C)ccc3c2P(C)(C)=O)n1 [Example 531] ?
7.03

Can you look up the measured DC50 of CCOc1cc(N2CCC(N3CCN(C(=O)COc4cccc5c4n(C)c(=O)n5C4CCC(=O)NC4=O)CC3)CC2)c(CC)cc1Nc1ncc(Br)c(Nc2ccc3nc(CC)ccc3c2P(C)(C)=O)n1 (centres unmarked) [Example 637] for me?
5.39

# lookup: DC50 of CCc1cc(Nc2ncc(Br)c(Nc3ccc4nc(NC(=O)C5CC5)ccc4c3P(C)(C)=O)n2)c(OC)cc1N1CCC(N2CCN(C(=O)[C@@H]3CCN(c4cc(F)c([C@H]5CCC(=O)NC5=O)c(F)c4)C3)CC2)CC1 [Example 587]
2.19

1: CCOc1cc(N2CCC(N3CCN(CCc4cc5oc(=O)n(C6CCC(=O)NC6=O)c5cc4C)CC3)CC2)c(CC)cc1Nc1ncc(Br)c(Nc2ccc3nc(CC)ccc3c2P(C)(C)=O)n1 (centres unmarked) [Example 465]
2: CCOc1cc(N2CCC(N3CCN(CCc4cccc5c4n(C)c(=O)n5C4CCC(=O)NC4=O)CC3)CC2)c(CC)cc1Nc1ncc(Br)c(Nc2ccc3nc(CC)ccc3c2P(C)(C)=O)n1 (centres unmarked) [Example 752]
// pick larger DC50 from pair: 1 vs 2 Reply with the label of the item you choose.
2

----------
# target-or-test-system: EGFR L858R/T790M (H1975-clone #36, homozygous) (Homo sapiens, UniProt P00533, L858R/T790M)
# Construct: designed to specifically target WT EGFR but preserve the L858R/T790M copy; host or cells: H1975-clone #36
# Sequence (P00533 25-1210 T790M/L858R): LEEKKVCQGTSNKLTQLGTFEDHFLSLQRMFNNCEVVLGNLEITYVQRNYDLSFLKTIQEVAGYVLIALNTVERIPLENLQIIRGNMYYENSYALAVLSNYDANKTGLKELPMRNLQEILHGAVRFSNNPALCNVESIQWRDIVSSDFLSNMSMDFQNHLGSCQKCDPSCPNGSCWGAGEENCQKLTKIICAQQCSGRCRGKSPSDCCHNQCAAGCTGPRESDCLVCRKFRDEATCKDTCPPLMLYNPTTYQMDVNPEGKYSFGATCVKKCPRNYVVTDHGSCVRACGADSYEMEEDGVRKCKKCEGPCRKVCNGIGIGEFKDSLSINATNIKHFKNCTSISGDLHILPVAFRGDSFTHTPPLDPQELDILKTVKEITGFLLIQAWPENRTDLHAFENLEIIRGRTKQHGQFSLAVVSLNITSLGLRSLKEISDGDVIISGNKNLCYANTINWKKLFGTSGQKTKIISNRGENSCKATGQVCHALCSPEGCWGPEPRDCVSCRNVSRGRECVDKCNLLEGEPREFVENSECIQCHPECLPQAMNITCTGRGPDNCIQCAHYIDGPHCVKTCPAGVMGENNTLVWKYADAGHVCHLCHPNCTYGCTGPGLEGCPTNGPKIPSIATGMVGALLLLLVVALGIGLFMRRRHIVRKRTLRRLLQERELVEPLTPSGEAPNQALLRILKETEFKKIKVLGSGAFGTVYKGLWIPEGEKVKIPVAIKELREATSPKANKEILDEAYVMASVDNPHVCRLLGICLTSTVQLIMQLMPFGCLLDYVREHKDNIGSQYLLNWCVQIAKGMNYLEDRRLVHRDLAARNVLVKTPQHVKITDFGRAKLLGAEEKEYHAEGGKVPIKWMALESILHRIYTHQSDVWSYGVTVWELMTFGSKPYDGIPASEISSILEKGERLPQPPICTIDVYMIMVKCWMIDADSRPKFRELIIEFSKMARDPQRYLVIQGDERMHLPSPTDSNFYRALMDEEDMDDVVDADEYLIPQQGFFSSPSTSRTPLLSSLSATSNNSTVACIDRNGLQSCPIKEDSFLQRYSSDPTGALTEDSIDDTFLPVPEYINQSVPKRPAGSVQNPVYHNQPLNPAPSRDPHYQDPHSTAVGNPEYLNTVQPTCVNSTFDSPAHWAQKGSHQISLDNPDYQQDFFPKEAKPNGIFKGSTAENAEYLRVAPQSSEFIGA
# test-details: EGFR degradation HTRF assay, H1975-clone #36 cells
# Type: cell-based
# condition-summary: H1975 #36, 16h treatment
readout-label: DC50 (µM)

I: COc1cc(N2CCC(N3CCN(CCc4ccc(C5CCC(=O)NC5=O)cc4)CC3)CC2)ccc1Nc1ncc(Cl)c(Nc2ccccc2NS(C)(=O)=O)n1 (centres unmarked) [Example 138]
II: CCc1cc(Nc2ncc(Br)c(Nc3ccc4c(=O)n(C)ncc4c3P(C)(C)=O)n2)c(OC)cc1N1CCC(N2CCN(CCC3CCN(c4cc(F)c(C5CCC(=O)NC5=O)c(F)c4)CC3)CC2)CC1 (centres unmarked) [Example 270]
III: CCc1cc(Nc2ncc(Br)c(Nc3ccc4nccnc4c3P(C)(C)=O)n2)c(OC)cc1N1CCC(N2CCN(CC3CCN(c4ccc(C5CCC(=O)NC5=O)cc4)C3)CC2)CC1 (centres unmarked) [Example 168]
Sort the entries above numerically by DC50, high end first. Response format: the labels, sorted as the prompt asks.
II, I, III
